system: A549; assay: Cytotoxicity against human A549 cells by MTT assay; type: functional, cell-based
assay metric: IC50 (µg/mL)
Write the value in µg/mL as a bare number.

Data request: Notebook entry, A549 assay: IC50 of C=C1CC[C@@H]2[C@]3(C)CO[C@@H](C)O[C@@H]3CC[C@@]2(C)[C@@H]1C/C=C1/C(=O)OC[C@H]1O = ?
Data returned: 2.43

* * *

tested on: A549; experiment: Cytotoxicity against human A549 cells by MTT assay; format: functional, cell-based
assay metric: log10 of IC50 (log10 of the value in µg/mL)
Hey, these are logged values: log10 of IC50, µg/mL being the unit before logging.

Data request: What log10 of IC50 value was documented for this compound, C=C1CC[C@@H]2[C@](C)(CO)[C@H](O)CC[C@@]2(C)[C@@H]1/C=C/C1=CCOC1=O ?
Data returned: 2.07

Data request: Moving on to C=C1CC[C@@H]2[C@]3(C)CO[C@@H](C)O[C@@H]3CC[C@@]2(C)[C@@H]1C/C=C1\C=COC1=O
Data returned: 1.67

Data request: Moving on to C=C1CC[C@@H]2[C@]3(C)CO[C@@H](CCC)O[C@@H]3CC[C@@]2(C)[C@@H]1C/C=C1/C(=O)OC[C@H]1O
Data returned: 1.36

Data request: Moving on to C[C@@H]1OC[C@@]2(C)[C@H]3CC[C@@]4(CO4)[C@@H](C/C=C4/C(=O)OC[C@H]4O)[C@]3(C)CC[C@H]2O1
Data returned: 0.64

Data request: Moving on to C=C1CC[C@@H]2[C@]3(C)CO[C@@H](C)O[C@@H]3CC[C@@]2(C)[C@@H]1/C=C/C1=CCOC1=O
Data returned: 1.95

Data request: Moving on to C=C1CC[C@@H]2[C@]3(C)CO[C@@H](C)O[C@@H]3CC[C@@]2(C)[C@@H]1C/C=C1/C(=O)OC[C@H]1OC(C)=O
Data returned: 0.52

* * *

test system: HeLa; experiment: Cytotoxicity against human HeLa cells by MTT assay; format: functional, cell-based
Catalogue of log10 IC50 values
Hey, these are logged values: log10 of IC50, µg/mL being the unit before logging.

Consider the following illustrative entries.
C=C1CC[C@@H]2[C@]3(C)CO[C@@H](CCCC)O[C@@H]3CC[C@@]2(C)[C@@H]1C/C=C1/C(=O)OC[C@H]1O    1.15
COc1cccc2c1C(=O)c1c(O)c3c(c(O)c1C2=O)C[C@@](O)(C(=O)CO)C[C@@H]3O[C@H]1C[C@H](N)[C@H](O)[C@H](C)O1    0.11
C=C1CC[C@@H]2[C@]3(C)CO[C@@H](C)O[C@@H]3CC[C@@]2(C)[C@@H]1C/C=C1/C(=O)OC[C@H]1O    0.63
C=C1CC[C@@H]2[C@]3(C)CO[C@@H](C)O[C@@H]3CC[C@@]2(C)[C@@H]1C/C=C1/C(=O)OC[C@H]1OC(C)=O    0.65
C[C@@H]1OC[C@@]2(C)[C@H]3CC[C@@]4(CO4)[C@@H](C/C=C4/C(=O)OC[C@H]4O)[C@]3(C)CC[C@H]2O1    0.84

--- query ---
Data request: Notebook entry, HeLa assay: log10 IC50 of C=C1CC[C@@H]2[C@]3(C)CO[C@@H](CC)O[C@@H]3CC[C@@]2(C)[C@@H]1C/C=C1/C(=O)OC[C@H]1O = ?
Data returned: 0.95

* * *

Catalogue of IC50 values
system: A549; experiment: Cytotoxicity against human A549 cells by MTT assay; assay type: functional, cell-based
Write the value in µg/mL as a bare number.

CC(=O)O[C@@H]1COC(=O)/C1=C/C[C@@H]1[C@@]2(CC[C@@H]3[C@]4(C)CO[C@@H](C)O[C@@H]4CC[C@]31C)CO2    4.37
C=C1CC[C@@H]2[C@]3(C)CO[C@@H](CCCCC)O[C@@H]3CC[C@@]2(C)[C@@H]1C/C=C1/C(=O)OC[C@H]1O    7.07

--- query ---
Data request: What IC50 value was documented for this molecule, C=C1CC[C@@H]2[C@]3(C)CO[C@@H](CCCC)O[C@@H]3CC[C@@]2(C)[C@@H]1C/C=C1/C(=O)OC[C@H]1O ?
Data returned: 33.5
